target: HLA-A*02:19; assay: IEDB peptide-MHC binding, purified MHC/competitive/fluorescence; filed as Kd, often an IC50 or EC50 that approximates it; bounds were set here for any values at or beyond the usual limits of such assays; conditions: source organism: Vibrio parahaemolyticus AQ3810
pKd: −log10 of the molar value.

sequence_content	pKd
SSRGYSAIW	≤ 4.70

* * *

Collected pKd values appear next to each entry.
target: HLA-A*03:01; assay: IEDB peptide-MHC binding, purified MHC/competitive/radioactivity; filed as Kd, often an IC50 or EC50 that approximates it; bounds were set here for any values at or beyond the usual limits of such assays; details: source organism: Mammarenavirus guanaritoense
pKd: −log10 of the molar value.

sequence_content	pKd
RSCSFKVGHH	4.94
IMAYVNQAHH	5.40

* * *

molecular target: HLA-B*18:01; test: IEDB peptide-MHC binding, purified MHC/competitive/fluorescence; filed as Kd, often an IC50 or EC50 that approximates it; bounds were set here for any values at or beyond the usual limits of such assays; details: source organism: Vibrio cholerae 2740-80

sequence_content	Kd
VQPWLMVDV	≥ 20 µM

* * *

Overview of recorded pKd for various sequences
biological target: HLA-B*27:05; assay: IEDB peptide-MHC binding, purified MHC/direct/fluorescence; filed as Kd, often an IC50 or EC50 that approximates it; bounds were set here for any values at or beyond the usual limits of such assays; conditions: source organism: Vibrio cholerae
pKd: −log10 of the molar value.
readout_name: pKd

sequence_content	readout_name	reported_value
AYLLQHLDL	pKd	≤ 4.70
EIFPNIKIY	pKd	≤ 4.70
FPRSAERAG	pKd	≤ 4.70
FPLTQRDVL	pKd	≤ 4.70

* * *

biological target: HLA-A*02:01; experiment: IEDB peptide-MHC binding, purified MHC/direct/fluorescence; filed as Kd, often an IC50 or EC50 that approximates it; bounds were set here for any values at or beyond the usual limits of such assays; conditions: source organism: Haemophilus influenzae
This section presents sequences with their documented Kd values.
readout_name: Kd (nM)

sequence_content	readout_name	u	relation_symbol	reported_value
YINMAWNLV	Kd	nM	=	135
VYFSPWFFL	Kd	nM	≥	20000

* * *

target: HLA-A*03:01; assay: IEDB peptide-MHC binding, purified MHC/competitive/radioactivity; filed as Kd, often an IC50 or EC50 that approximates it; bounds were set here for any values at or beyond the usual limits of such assays; details: source organism: Lymphocytic choriomeningitis virus (strain Traub)
pKd: −log10 of the molar value.

sequence_content	pKd
KCHDHYLCR	5.12

* * *

biological target: HLA-B*15:17; assay: IEDB peptide-MHC binding, purified MHC/competitive/fluorescence; filed as Kd, often an IC50 or EC50 that approximates it; bounds were set here for any values at or beyond the usual limits of such assays; conditions: source organism: Vibrio cholerae 2740-80
pKd: −log10 of the molar value.
readout_name: pKd

sequence_content	reported_value
VQPWLMVDV	≤ 4.70

* * *

molecular target: HLA-A*02:11; test: IEDB peptide-MHC binding, purified MHC/direct/fluorescence; filed as Kd, often an IC50 or EC50 that approximates it; bounds were set here for any values at or beyond the usual limits of such assays; details: source organism: Ebola virus Yambio0403
pKd: −log10 of the molar value.

sequence_content	tgt	pKd
SWHHTSDDF	HLA-A*02:11	≤ 4.70
